measured-property: melting point

A selection of reference data follows.
input: Query: melting point; subject: c1ccc(-c2ccc(Cc3ccco3)[nH]2)cc1
output: 79 to 80 °C

input: Query: melting point; subject: Cc1cc(=O)n(Cc2ccccc2)c2cc(OCc3nnn[nH]3)cc(OCc3nnn[nH]3)c12
output: 246 to 249 °C

Continuing:
input: Query: melting point; subject: COc1ccc2c(c1)cc(/C=C/c1ccccc1Cl)n2CCC#N
output: 136 to 138 °C

input: Query: melting point; subject: CCOc1ccccc1C1OC(=O)NC1=O (stereo unspecified)
output: 165 to 167 °C

###

In this section we review reported melting point values for a set of molecules.

input: Query: melting point; subject: CC(C)(N)CNCCCCCCNCC(C)(C)N
output: 25 to 35 °C

Kindly review the next molecule as well.
input: Query: melting point; subject: Cc1ncc(C#N)c(Nc2ccc3[nH]ccc3c2C)c1-c1cc2cc(C=O)ccc2o1
output: 168 to 169 °C

###

In this section we review reported melting point values for a set of compounds.

A selection of reference data follows.
input: Query: melting point; subject: Nc1cc(C(=O)c2ccc(F)c(N)c2)ccc1F
output: 131 to 132 °C

input: Query: melting point; subject: CCOC(=O)c1[nH]c2ccc(Cl)cc2c1Cc1ccccc1
output: 196 to 197 °C

input: Query: melting point; subject: CCOCCS(=O)(=O)c1nc[nH]n1
output: 91.5 to 92.5 °C

input: Query: melting point; subject: COc1ccc2cc(C(C)C(=O)OC/C=C\COC(=O)OC(C)O[N+](=O)[O-])ccc2c1 (centres undefined)
output: 76 to 78 °C

input: Query: melting point; subject: C[C@H]1CCCC(C)(C)[C@@H]1[C@H](O)c1ccc(F)c(C#N)c1
output: 118 to 119 °C

Continuing:
input: Query: melting point; subject: Cc1ccc(NC(=O)c2cc(Cl)ccc2NCC2CCN(C3CCCCC3)CC2)nc1
output: 176 to 178 °C

input: Query: melting point; subject: Cc1cnc(N2CCC(c3ccc([N+](=O)[O-])cc3)CC2)n1C
output: 178 to 179 °C

input: Query: melting point; subject: CCOC(=O)C(=O)NNC(=O)c1ccc(OCC)cc1
output: 126 °C

input: Query: melting point; subject: Cc1cc2c(=O)c(C(=O)O)cn(-c3cc(N)c(F)cc3F)c2cc1F
output: > 280 °C

###

In this section we review reported melting point values for a set of compounds.

A selection of reference data follows.
input: Query: melting point; subject: O=C(Cc1ccccc1)NCc1cccc2c1C(=O)N(C1CCC(=O)NC1=O)C2=O (configuration not stated)
output: 128 to 130 °C

input: Query: melting point; subject: CC(C)[C@H](OCc1ccccc1F)[C@H]1[C@H]([N+](=O)[O-])[C@H](c2ccccc2)N[C@@H]1C(=O)NCC(=O)O
output: 72 to 73 °C

input: Query: melting point; subject: Cc1c(CC(=O)O)c2ccccc2c(=O)n1Cc1ccc(Cl)c(Cl)c1
output: 218 to 220 °C

Continuing:
input: Query: melting point; subject: CN1CCN(C(=O)OC2c3ccccc3C(=O)N2c2ccc3ccc(Br)nc3n2)CC1 (configuration not stated)
output: 260 °C

input: Query: melting point; subject: COc1ccc(C(=O)Oc2ccc(O)cc2)cc1
output: 162 to 165 °C

input: Query: melting point; subject: COC(=O)CCCOc1cc([N+](=O)[O-])c(C=O)cc1OC
output: 75 °C

input: Query: melting point; subject: CCC(CC)Cn1c(=O)c(=O)[nH]c2cc([N+](=O)[O-])c(-n3cccc3)cc21
output: 154 to 155 °C

input: Query: melting point; subject: CCOCc1nc2c(N)nc3cc(-c4ccsc4)ccc3c2n1CC(C)C
output: 187 to 189 °C

input: Query: melting point; subject: CC1(C)SC(=O)C2OC=CC=C21 (configuration not stated)
output: 42 °C

input: Query: melting point; subject: Cc1ccc2c(=O)c(O)cn(C)c2c1
output: 268 °C

input: Query: melting point; subject: CC1(OCC(F)(F)F)C=NC(c2cc(-c3ccc(S(C)(=O)=O)cc3)c(N3CCOCC3)s2)=CC1 (configuration not stated)
output: 156 °C

input: Query: melting point; subject: O=C(Cc1cccc(O)c1)NNC(=O)c1c(OCc2ccccc2)cc(OCc2ccccc2)cc1OCc1ccccc1
output: 154 to 155 °C

input: Query: melting point; subject: CC(=O)NC[C@H]1CN(c2cc(F)c(N3CCN(C(=O)CO)CC3)c(F)c2)C(=O)O1
output: 160 to 162 °C
